System: Sarcoma 180
Test: In Vivo Antitumor Activity Against Sarcoma 180
Details: 25 mg/kg/day, i.p., days 1, 5 and 9
We begin with a simple list: items and their reported Mortality in 12 days.

Reference set, count: 3
O=C(OC[C@H]1CN2C(=O)C[C@@H]2O1)c1ccc(F)cc1 (racemic) [compound 31] : 0/7
O=C(/C=C\C(=O)OC[C@H]1CN2C(=O)C[C@@H]2O1)OC[C@H]1CN2C(=O)C[C@@H]2O1 (relative stereo) [compound 30] : 0/6
CCCCCC(=O)OC[C@H]1CN2C(=O)C[C@@H]2O1 (racemic) [compound 6] : 0/6

As a next step, examine the molecule that follows.
Supply measured Mortality in 12 days of COc1ccc(C(=O)OC[C@H]2CN3C(=O)C[C@@H]3O2)cc1 (relative stereo) [compound 20] in your reply.
0/7

====

Test system: L1210 cells
Assay: cells
Assay type: cell-based
Details: Mus musculus, L1210, 72 h, read-out: Cytotoxicity TD50 L1210
We begin with a simple list: items and their reported CC50.
Numbers only here, please. The scale is µg/mL.

Reference set, count: 4
CCCC(=O)OC[C@H]1CN2C(=O)C[C@@H]2O1 (racemic) : 0.45
O=COC[C@H]1CN2C(=O)C[C@@H]2O1 (racemic) : 0.22
O=C1C[C@@H]2O[C@@H](CO)CN12 : 0.027
O=C1C[C@@H]2O[C@@H](C[S+]([O-])Cc3ccccc3)CN12 (mixture of isomers) : 0.3

Send back L1210 cells CC50 of CCCCCCCCCC(=O)OC[C@H]1CN2C(=O)C[C@@H]2O1 (racemic) only.
0.37

Send back L1210 cells CC50 of C#CC(=O)OC[C@H]1CN2C(=O)C[C@@H]2O1 (racemic) only.
0.04

Send back L1210 cells CC50 of CC=CC=CC(=O)OC[C@H]1CN2C(=O)C[C@@H]2O1 (relative stereo) only.
0.65

Send back L1210 cells CC50 of CCCCCCCC(=O)OC[C@H]1CN2C(=O)C[C@@H]2O1 (racemic) only.
0.34

Send back L1210 cells CC50 of CCCCCC(=O)OC[C@H]1CN2C(=O)C[C@@H]2O1 (racemic) only.
0.7

====

System: Sarcoma 180
Assay: In Vivo Antitumor Activity Against Sarcoma 180
Conditions: Mus musculus, Sarcoma-180, ip, 288 h, read-out: % Inhibition of tumor growth
measureName: inhibition in vivo at 50 mg/kg (%)
Numbers only here, please. The scale is %.

Reference set, count: 4
O=C(OC[C@H]1CN2C(=O)C[C@@H]2O1)c1ccc(O)cc1 (relative stereo) : 48.3
CCCCCC(=O)OC[C@H]1CN2C(=O)C[C@@H]2O1 (racemic) : 78
O=C1C[C@@H]2O[C@H](CCO)CN12 (racemic) : 65.3
O=C(O)COc1ccc(C(=O)OC[C@H]2CN3C(=O)C[C@@H]3O2)cc1 (relative stereo) : 23.7

Send back Sarcoma 180 inhibition in vivo at 50 mg/kg of O=C1C[C@@H]2O[C@@H](C[S+]([O-])Cc3ccccc3)CN12 (mixture of isomers) only.
64

====

System: Sarcoma 180
Test: In Vivo Antitumor Activity Against Sarcoma 180
Conditions: 50 mg/kg/day, i.p., days 1, 5 and 9
We begin with a simple list: items and their reported Mortality in 12 days.

Supply measured Mortality in 12 days of O=C1C[C@@H]2O[C@@H](C[S+]([O-])Cc3ccccc3)CN12 (mixture of isomers) in your reply.
0/7

Supply measured Mortality in 12 days of O=C(O)COc1ccc(C(=O)OC[C@H]2CN3C(=O)C[C@@H]3O2)cc1 (relative stereo) in your reply.
0/6

Supply measured Mortality in 12 days of O=C1C[C@@H]2O[C@H](CCO)CN12 (racemic) in your reply.
0/6

Supply measured Mortality in 12 days of CCCCCC(=O)OC[C@H]1CN2C(=O)C[C@@H]2O1 (racemic) in your reply.
0/6

Supply measured Mortality in 12 days of O=C(OC[C@H]1CN2C(=O)C[C@@H]2O1)c1ccc(O)cc1 (relative stereo) in your reply.
0/6
